I'd appreciate it if you could supply pIC50 values for the items below.
test system: HSC-3; assay: cells; format: functional, cell-based, Homo sapiens; conditions: Homo sapiens, HSC-3
Description: SANGER: Inhibition of human HSC-3 cell growth in a cell viability assay.
A value of pIC50 is the negative decimal logarithm of a concentration given in moles per litre.

stdin: GET /values?readout=pIC50&item= Nc1ccn([C@@H]2O[C@H](CO)[C@@H](O)[C@@H]2O)c(=O)n1
stdout: 6.40

stdin: Now consider O=C(NOCC1CC1)c1ccc(F)c(F)c1Nc1ccc(I)cc1Cl and answer again.
stdout: 5.49

stdin: Also, COc1ccc(-c2ccc3c(N4CCOC[C@@H]4C)nc(N4CCOC[C@@H]4C)nc3n2)cc1CO please.
stdout: 6.37

stdin: Continue with COc1cc(F)c(F)c(Nc2ccc(I)cc2F)c1NS(=O)(=O)C1(CC(O)CO)CC1 (stereo not drawn)
stdout: 6.51

stdin: Ok, now COC(=O)CNC(=O)C(=O)OC
stdout: 3.21

stdin: Another molecule to look at: COc1cc([C@@H]2c3cc4c(cc3[C@@H](O[C@@H]3O[C@@H]5CO[C@@H](C)O[C@H]5[C@H](O)[C@H]3O)[C@H]3COC(=O)[C@H]23)OCO4)cc(OC)c1O [ETOPOSIDE]
stdout: 5.84
